- experimental system: T1, interleukin-23 receptor (IL-23R), Q5VWK5
- T1 chain: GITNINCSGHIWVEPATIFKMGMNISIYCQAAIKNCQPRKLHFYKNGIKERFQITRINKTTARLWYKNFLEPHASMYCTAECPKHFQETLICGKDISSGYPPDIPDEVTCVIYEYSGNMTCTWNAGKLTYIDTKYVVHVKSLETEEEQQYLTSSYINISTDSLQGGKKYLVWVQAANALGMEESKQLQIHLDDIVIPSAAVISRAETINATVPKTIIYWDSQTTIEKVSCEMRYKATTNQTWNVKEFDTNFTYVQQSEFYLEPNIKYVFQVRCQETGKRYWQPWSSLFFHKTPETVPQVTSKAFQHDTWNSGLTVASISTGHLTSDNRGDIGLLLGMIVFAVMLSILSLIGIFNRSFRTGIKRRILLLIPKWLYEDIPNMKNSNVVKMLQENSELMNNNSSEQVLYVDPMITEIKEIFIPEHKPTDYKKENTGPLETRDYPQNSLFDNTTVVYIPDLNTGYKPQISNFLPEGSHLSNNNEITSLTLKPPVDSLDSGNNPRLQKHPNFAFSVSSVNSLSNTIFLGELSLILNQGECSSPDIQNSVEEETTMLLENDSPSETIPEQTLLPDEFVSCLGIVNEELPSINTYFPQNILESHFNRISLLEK
- test: cell-based or functional assay
Positions of bridges follow the written chain, without caps; N, C: chain ends. Non-standard residues stand in square brackets, D forms with d. No end group written: not given here. 2Nal(6-OH) = N[C@@H](Cc1ccc2cc(O)ccc2c1)C(=O)O; Trp(7-Me) = Cc1cccc2c(C[C@H](N)C(=O)O)c[nH]c12; AEF = NCCOc1ccc(C[C@H](N)C(=O)O)cc1; 3Pal = N[C@@H](Cc1cccnc1)C(=O)O; Pen = CC(C)(S)[C@H](N)C(=O)O; Thp = NC1(C(=O)O)CCOCC1; Ahp = NCCCCCCC(=O)O; Sar = CNCC(=O)O

binder	PBMC pSTAT3 IC50
[Ahp][Pen]NT[Trp(7-Me)]K(Ac)[Pen][2‑amino‑3‑(4-(2-aminoethoxy)phenyl)propanoic acid][2‑amino‑3‑(6-hydroxynaphthalen-2-yl)propanoic acid][Thp]EN[3Pal][Sar] (disulfide 2-7 (inferred); ends not checked) [SEQ ID NO: 447]	< 1 nM
R[Pen]ET[Trp(7-Me)]K(Ac)[Pen][AEF][2Nal(6-OH)][Thp]EN[3Pal][Sar] (disulfide 2-7 (inferred); ends not checked) [SEQ ID NO: 141]	< 0.1 nM
R[Pen]NT[Trp(7-Me)]K(Ac)[Pen][AEF][2Nal(6-OH)][Thp]EN[3Pal][Sar]K (disulfide 2-7 (inferred); ends not checked; also: K15: lipidated lysine, lipid not given here) [SEQ ID NO: 116]	< 1 nM
